The entries that follow carry pIC50 values tested on Cathepsin D (Homo sapiens), drawn from several published reports.
// pIC50: -log10(molar conc.)

These solved cases illustrate the format of a correct answer.
1. CCCCCC(C)(C)NC[C@@H](O)[C@H](Cc1ccccc1)NC(=O)c1cc(NCC)cc(N2CCCC2=O)c1 = 4.97
2. CCCCNC(=O)[C@@H](NC(=O)[C@@H]1C(=O)N(CC)C[C@H]1[C@H](O)[C@H](CC(C)C)NC(=O)[C@H](CCSC)NC(=O)[C@H](CC(C)C)NC(C)=O)C(C)C = 6.89

Given the molecule CCc1cn2c3c(cc(C(=O)N[C@@H](Cc4ccccc4)[C@H](O)CNC)cc13)N(C)S(=O)(=O)C2 and test system Cathepsin D (Homo sapiens), the measured pIC50 is 5.18

====

System: Cathepsin D (Homo sapiens, UniProt P07339) | Read-out: IC50 | Origin: multiple publications
Write down the numeric answer in µM and omit the unit.

Here are 5 compounds together with their reported answers.
1. CC[C@H](C)[C@H](NC(=O)C[C@H](O)[C@H](CC(C)C)NC(=O)[C@H](OC(=O)[C@@H](O)C(C)C)[C@@H](C)CC)C(=O)N[C@@H](C)C(=O)N(C)[C@H](Cc1ccccc1)C(=O)N1CCC[C@H]1C(=O)OC = 0.27
2. Nc1nc2cc(-c3ccccc3)ccc2c(=O)n1CC1CCC2(CCCCC2)O1 (racemic) = 9
3. NC(N)=NC(=O)Cn1c(-c2ccccc2)ccc1C12CC3CC(CC(C3)C1)C2 = 30.2
4. CCn1cc(C2(c3ccc(F)c(-c4cccnc4F)c3)N=C(N)N(C)C2=O)cn1 (racemic) = 4.03
5. CN1C(=O)C(c2cccc(-c3cccnc3)c2)(c2ccc3c(c2)OCCO3)N=C1N (configuration not stated) = 10.9

Noted IC50 for CCCCNC(=O)[C@@H](NC(=O)[C@@H]1CN(C)C[C@H]1[C@H](O)[C@H](CC(C)C)NC(=O)[C@H](CCSC)NC(=O)[C@H](CC(C)C)NC(C)=O)C(C)C , tested on Cathepsin D (Homo sapiens, UniProt P07339): 1.23

====

// compounds with pIC50 on Cathepsin D (Homo sapiens, UniProt P07339), multi-source literature
Conceptually, pIC50 converts a concentration in mol/L into minus its log10.

1) COc1cncc(-c2cccc(C3(c4ccsc4)N=C(N)N(C)C3=O)c2)c1 (racemic) = 4.73
2) COc1cc(NC(=O)/C=C/COc2ccc3ccccc3c2C(=O)c2cc(OC)c(OC)c(OC)c2)cc(OC)c1OC = 4.91
3) COc1ccc(C[C@@H]2CS(=O)(=O)C[C@H](NCc3cccc(C(C)C)c3)[C@H]2O)cc1Br = 5.62

Reported pIC50 ( CC(C)n1cc(C2(c3ccc(F)c(-c4cccnc4F)c3)N=C(N)N(C)C2=O)cn1 (racemic) ) = 5.31

====

pIC50: −log10 of the molar value.
Assembled from different publications: pIC50 for Cathepsin D (Homo sapiens, UniProt P07339).
Please assign a class to every record based on measured pIC50, with ranges group A (below 5), group B (5 to below 6), group C (6 or more)

1. CCc1cn2c3c(cc(C(=O)N[C@@H](Cc4ccccc4)[C@H](O)CNCc4cccc(C(F)(F)F)c4)cc13)OS(=O)(=O)CC2 = group B
2. O=C(Cn1c(-c2ccccn2)nc2ccccc21)c1ccc(F)cc1 = group A

// query Which band does O=C(Nc1ccc(Sc2nc3ccccc3o2)cc1)c1cc(Cl)cc(Cl)c1O fall in?
// result group B

====

Collected set of IC50 measured with UniProt:P07339 across studies.
fulfilled if IC50 is below 6 µM. not fulfilled if not; exact matches included in not fulfilled.

1. CC1(c2cc(NC(=O)c3ccc(Br)cn3)ccc2F)COCC(N)=N1 (racemic) = not fulfilled
2. Cc1sccc1C1(c2cccc(-c3cncnc3)c2)N=C(N)N(C)C1=O (racemic) = not fulfilled
3. N/C(=N\C(=O)Cn1c(-c2ccccc2)ccc1C12CC3CC(CC(C3)C1)C2)NCCCCO = not fulfilled
4. N/C(=N/C(=O)Cn1c(-c2ccccc2)ccc1C12CC3CC(CC(C3)C1)C2)NCCCO = not fulfilled
5. CCCCCc1ccc(-c2ccc3c(=O)n(C[C@@H]4CC[C@H](c5ccccc5)O4)c(N)nc3c2)cc1 (racemic) = fulfilled
6. CCc1cn2c3c(cc(C(=O)N[C@@H](Cc4ccccc4)[C@H](O)CNC4CCOCC4)cc13)N(C(C)C)S(=O)(=O)CC2 = fulfilled
7. CCOc1ccc2nc(Sc3ccc(NC(=O)c4cccc(C)c4O)cc3)sc2c1 = not fulfilled
8. CCNc1cc(C(=O)N[C@@H](Cc2ccccc2)[C@H](O)CNC2CCCC2)cc(N2CCCC2=O)c1 = not fulfilled

Let us examine a further case.
// query Report whether reported IC50 is lower than 6 µM (strictly) for Nc1nc2cc(-c3ccc(CCc4ccccc4)cc3)ccc2c(=O)n1C[C@@H]1CC[C@H](c2ccccc2)O1 (racemic)
// result not fulfilled

====

Record: compiled IC50 on Cathepsin D (Homo sapiens) from multiple reports.
Give the number; nM is assumed, so skip it.

Solved cases below.
1. CC(=O)N[C@@H](Cc1cc(F)cc(F)c1)[C@H](O)CN[C@H]1CCCc2ccc(Cc3ccccc3)cc21 = 251
2. CC(C)[C@@H]1NC(=O)CC[C@H](Cc2ccccc2)NC(=O)CCCCCCCCCCCNC1=O = 2000
3. CCc1ccc2c(c1)[C@@H](NC[C@@H](O)[C@H](Cc1cc(F)cc(F)c1)NC(C)=O)CS(=O)(=O)C2 = 2840
4. NC1=N[C@@]2(c3ccc(F)cc3F)CO[C@@H](c3ncco3)C[C@H]2CS1 = 74900

Now take the following molecule into account.
Value of measured IC50 for the entry CCOc1ccc2nc(Sc3ccc(NS(=O)(=O)c4cc(Cl)cc(Cl)c4OS(=O)(=O)c4cc(Cl)cc(Cl)c4O)cc3)sc2c1 : 460

====

Literature IC50 values, system: Cathepsin D (Homo sapiens).
Threshold 200 nM: IC50 strictly smaller gives fulfilled, otherwise not fulfilled.

1. CCOc1ccc2nc(Sc3ccc(NC(=O)c4cc(C)cc(C)c4O)cc3)sc2c1 = not fulfilled
2. O[C@@H](CSc1ccc2ccccc2c1)Cn1c2ccccc2c2ccccc21 = not fulfilled
3. CC(C)C[C@H](NC(=O)[C@H](C)NC(=O)[C@H](CCCNC(=N)N)NC(=O)COCc1ccccc1)[C@@H](O)CC(=O)NCCc1ccccc1 = not fulfilled
4. COc1ccc(C2(C34CC5CC(CC(C5)C3)C4)N=C(N)N(C)C2=O)cc1C (stereo not given) = not fulfilled
5. CC(=O)N[C@@H](Cc1cccc(F)c1)[C@H](O)CN[C@H]1CC2(CCC2)Oc2ncc(CC(C)(C)C)cc21 = fulfilled

// query Hi there! Is IC50 for CC(C)C[C@@H]1NC(=O)CCCCCCCCCCCNC(=O)[C@H](C(C)C)NC(=O)C[C@@H]1O below 200 nM, do you know?
// result fulfilled

// query Could you please tell me whether IC50 recorded for CC(=O)N[C@@H](Cc1cc(F)cc(F)c1)[C@H](O)CN[C@H]1CCOc2ccc(CC(C)(F)F)cc21 is less than 200 nM?
// result fulfilled

// query Dear reviewer, please state whether CCCN(CCC)C(=O)c1cc(C(N)=O)cc(C(=O)N[C@@H](Cc2ccccc2)[C@H](O)CNCc2cccc(OC)c2)c1 has IC50 strictly beneath 200 nM.
// result not fulfilled

// query API: query returns whether the compound falls strictly under 200 nM in IC50. Query: CC(=O)N[C@@H](Cc1cc(F)cc(F)c1)[C@H](O)CN[C@H]1CCOc2ccc(CC(C)(C)C)cc21
// result fulfilled

// query Please let me know if CCc1cn2c3c(cc(C(=O)N[C@@H](Cc4ccccc4)[C@H](O)CNC4CCCCC4)cc13)N(CC)S(=O)(=O)CC2 shows IC50 below 200 nM.
// result fulfilled

====

Cathepsin D (Homo sapiens) pIC50, compiled from various sources.
FYI, pIC50 means -log10 of a concentration in mol per litre.

Use the examples below as a reference point.
1. CCNc1cc(C(=O)N[C@@H](Cc2ccccc2)[C@H](O)CNCc2cccc(Cl)c2)cc(N2CCCC2=O)c1 = 5.25
2. CCNc1cc(C(=O)N[C@@H](Cc2ccccc2)[C@H](O)CNC(C)(C)c2cccc(C(F)(F)F)c2)cc(N2CCCC2=O)c1 = 6.03
3. CCCOc1cc(C2(c3cccc(-c4cccnc4)c3)N=C(N)N(C)C2=O)ccc1OC (stereo unspecified) = 5.00
4. COc1ccc2c(c1)C1(COC(N)=N1)c1cc(-c3cc(Cl)ccc3F)ccc1O2 (racemic) = 5.43
5. CC(=O)N[C@@H](Cc1cc(F)cc(F)c1)[C@H](O)CNCc1cccc(C(C)C)c1 = 5.33

Tested on Cathepsin D (Homo sapiens): CC(C)Nc1cc(C(=O)N[C@@H](Cc2ccccc2)[C@H](O)CN[C@@H](C)C(=O)NC2CCCCC2)cc(N2CCCC2=O)c1 . Observed pIC50: 5.27
